Target: δ opioid receptor (DOR)
Test: protein binding radioassay
Bridges are numbered along the chain shown (N, C = ends). Where no end group is shown, it is not given here. [ ]: non-standard residue; d: D form.
pKd values for the binders below.
pKd here is simply -log10 of the concentration when that concentration is written in mol/L.

[[record]]
binder = "Y[dA]GF[dL]KCFRYPNGVLACT (disulfide 7-17, 18 residues) [DADLE-OL II]"
meas_value = 6.56


Incoming: Let me know recorded pKd for YASPKCFRY[dA]GF[dL]LACT (disulfide 6-16) [DADLE-OL] , thanks.
Outgoing: 7.19

// provenance: patent US20250326791A1
